The values you see were collected from patent US12667824B2.

- EXPERIMENT: Amine value of amine compound (JIS K7237-1995 titration)
- Format: physicochemical
- RECORDED CONDITIONS: 0.1 N perchloric acid-acetic acid titration
PROPERTY MEASURED: Amine Value (mgKOH/g)

Record NCC1CCC(CN)CC1 (single isomer, unassigned) [Example 2, 1,4-bis(aminomethyl)cyclohexane] . Reported Amine Value: 789

Record NCC1CCC(CN)CC1 (single isomer, unassigned) [Example 3, 1,4-bis(aminomethyl)cyclohexane] . Reported Amine Value: 789

a. NCCCNCC1CCCC(CNCCCN)C1 (stereo not shown) [Example 5]
b. NCCNCCNCCN [Comparative Example 2, Triethylenetetramine, reference compound]
// query Could you check which of a and b has a smaller value for Amine Value? Pick one; state its label.
// result a

---

- EXPERIMENT: Maximum carbon dioxide (CO2) release temperature of amine compound (DSC)
- Assay type: physicochemical
- RECORDED CONDITIONS: amine compound with CO2 absorbed, DSC 23 to 250° C., 10° C./min, nitrogen
PROPERTY MEASURED: Maximum CO2 Release Temperature (°C)

Some compounds with known Maximum CO2 Release Temperature results, for comparison:
Record NCCCNCC1CCCC(CNCCCN)C1 (stereo not shown) . Reported Maximum CO2 Release Temperature: 97.8

Record NCC1CCC(CN)CC1 (single isomer, unassigned) [Example 2, 1,4-bis(aminomethyl)cyclohexane] . Reported Maximum CO2 Release Temperature: 135.2

P. NCCNCCNCCN [Comparative Example 2, Triethylenetetramine, reference compound]
Q. NCC1CCC(CN)CC1 (single isomer, unassigned) [Example 3, 1,4-bis(aminomethyl)cyclohexane]
// query Of the two listed items, P and Q , which carries the larger Maximum CO2 Release Temperature figure? Pick one; state its label.
// result Q
(Q: 130 °C, P: 69.5 °C)

---

- EXPERIMENT: Maximum endothermic temperature of amine compound (DSC, volatilization)
- Assay type: physicochemical
- RECORDED CONDITIONS: DSC 23 to 350° C., 10° C./min, nitrogen; volatilization of the amine compound
PROPERTY MEASURED: Maximum Endothermic Temperature (°C)

A. NCC1CCC(CN)CC1 (single isomer, unassigned) [Example 2, 1,4-bis(aminomethyl)cyclohexane]
B. NCCCNCC1CCCC(CNCCCN)C1 (stereo not shown) [Example 5]
// query Of the two listed items, A and B , which carries the larger Maximum Endothermic Temperature figure? Pick one; state its label.
// result B
